Apoptosis regulator Bcl-2 (Homo sapiens, UniProt P10415): recorded pKi for assorted compounds
Sequence (P10415 whole entry): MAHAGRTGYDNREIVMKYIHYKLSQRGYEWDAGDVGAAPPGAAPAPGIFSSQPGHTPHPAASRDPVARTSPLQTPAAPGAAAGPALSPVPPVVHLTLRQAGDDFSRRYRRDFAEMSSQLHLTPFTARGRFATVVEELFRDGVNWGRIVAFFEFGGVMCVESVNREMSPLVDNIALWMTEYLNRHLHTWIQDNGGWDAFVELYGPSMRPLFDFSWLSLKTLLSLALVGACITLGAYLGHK
Scale explanation: pKi corresponds to minus log10 of a concentration expressed in moles per litre.

Some entries whose results are on file:
INSERT INTO measurements (entry_smiles, assay_system, endpoint_name, result_number) VALUES
  ('O=C([C@@H]1[C@@H](CO)[C@@H]2Cn3c(cccc3=O)[C@@H]2N1Cc1ccc(Cl)c(Cl)c1)N1CCC(Cc2ccccc2)CC1', 'Apoptosis regulator Bcl-2 (Homo sapiens, UniProt P10415)', 'pKi', 5.92),
  ('O=C(NCCN1CCCCC1)[C@H]1[C@H](CO)[C@H]2Cn3c(cccc3=O)[C@@H]1N2c1nc(-c2ccc(Cl)cc2)c(-c2ccccc2)s1', 'Apoptosis regulator Bcl-2 (Homo sapiens, UniProt P10415)', 'pKi', 5.82),
  ('O=C(NCCCN1CCCC1)[C@H]1[C@H](CO)[C@H]2Cn3c(cccc3=O)[C@@H]1N2c1nc(-c2ccc(Cl)cc2)c(-c2ccccc2)s1', 'Apoptosis regulator Bcl-2 (Homo sapiens, UniProt P10415)', 'pKi', 5.80),
  ('COCCNC(=O)[C@@H]1[C@@H](CO)[C@@H]2Cn3c(cccc3=O)[C@H]1N2c1nc(-c2ccc(Cl)cc2)c(-c2ccccc2)s1', 'Apoptosis regulator Bcl-2 (Homo sapiens, UniProt P10415)', 'pKi', 5.37);

Observed pKi on Apoptosis regulator Bcl-2 (Homo sapiens, UniProt P10415), entry O=C(NC1Cc2ccccc2C1)[C@H]1[C@H](CO)[C@H]2Cn3c(cccc3=O)[C@H]2N1CC1CCCCC1 , equals 5.27

For the compound CN(C)CCNC(=O)[C@@H]1[C@@H](CO)[C@@H]2Cn3c(cccc3=O)[C@H]1N2c1nc(-c2ccc(Cl)cc2)c(-c2ccccc2)s1 , the measured pKi on Apoptosis regulator Bcl-2 (Homo sapiens, UniProt P10415) was 5.70

# value of pKi, Apoptosis regulator Bcl-2 (Homo sapiens, UniProt P10415), item O=C(NCCN1CCCCC1)[C@@H]1[C@@H](CO)[C@@H]2Cn3c(cccc3=O)[C@H]1N2c1nc(-c2ccc(Cl)cc2)c(-c2ccccc2)s1 = 5.60

# lookup: CN(C)CCNC(=O)[C@H]1[C@H](CO)[C@H]2Cn3c(cccc3=O)[C@@H]1N2c1nc(-c2ccc(Cl)cc2)c(-c2ccccc2)s1 on Apoptosis regulator Bcl-2 (Homo sapiens, UniProt P10415), pKi = 5.89

Noted pKi for O=C(N[C@@H]1CCN(Cc2ccccc2)C1)[C@H]1[C@H](CO)[C@H]2Cn3c(cccc3=O)[C@H]2N1CC1CCCCC1 , tested on Apoptosis regulator Bcl-2 (Homo sapiens, UniProt P10415): 5.11
